So I've got a bunch of molecules here, and I need their LD50 values.
experiment: Toxicity (LD50) in the mouse; conditions: in vivo, ip

## Task Output LD50 of CC(=O)NCc1cc(CCC(=O)O)no1 [Example 17]
## Result > 300 mg/kg

## Task Output LD50 of N=C(N)NCc1cc(CCC(=O)O)no1 [Example 23]
## Result > 300 mg/kg

## Task Output LD50 of O=C(O)CCc1cc(CNCc2ccccc2)on1 [Example 14]
## Result > 300 mg/kg

###

test system: high affinity 3H-D-aspartate absorption, synaptic vesicles (synaptosomes) from rat cortex; experiment: "High affinity" absorption of 3H-aspartate in a vesicle preparation from rat brain; format: biochemical; conditions: preparation concentration 10 μM; relative to control values (100%)
observed-property: Stimulation of the 3H-D-aspartate absorption, Stimulation (%)
Please answer in the form of a number followed by its unit of measurement.

## Task Output Stimulation of the 3H-D-aspartate absorption, Stimulation (%) of `CC(C)[C@@H]1CC[C@@H](C)C[C@H]1OC(=O)CCc1cc(CN)on1`
## Result 13%

## Task Output Stimulation of the 3H-D-aspartate absorption, Stimulation (%) of `Cl.NCc1cc(CCC(=O)OCc2ccccc2)no1`
## Result 26%

## Task Output Stimulation of the 3H-D-aspartate absorption, Stimulation (%) of C[C@H]1C[C@@H](OC(=O)CCc2cc(C[N+](C)(C)C)on2)CC(C)(C)C1 (relative stereo)
## Result 35%

## Task Output Stimulation of the 3H-D-aspartate absorption, Stimulation (%) of `CCOC(=O)CCc1cc(CN)on1.Cl`
## Result 17%

###

test: Toxicity (LD50) in the mouse; settings: in vivo, iv
Where a name gives a salt, the structure may show the parent alone.
So I've got a bunch of compounds here, and I need their LD50 values.

## Task Output LD50 of NCc1cc(=O)[nH]o1 [Muscimol, 5-(aminomethyl)-3(2H)-isoxazolone, reference compound]
## Result 3 to 10 mg/kg

## Task Output LD50 of C[C@]12N[C@H](Cc3ccccc31)c1ccccc12 [MK 801, reference compound]
## Result 30 to 60 mg/kg

## Task Output LD50 of `CN(C)Cc1cc(CCC(=O)O)no1`
## Result > 100 mg/kg

## Task Output LD50 of CCOP(C)(=O)CCc1cc(CN)on1 (stereo not shown) [Example 10, hydrochloride]
## Result > 100 mg/kg

## Task Output LD50 of `CC(C)[C@@H]1CC[C@@H](C)C[C@H]1OC(=O)CCc1cc(CNC(=O)[C@@H](N)Cc2ccccc2)on1`
## Result 25 to 50 mg/kg

## Task Output LD50 of NCC1CC(CCC(=O)O)=NO1 (racemic)
## Result > 200 mg/kg

## Task Output LD50 of `NCc1cc(C(=O)O)no1`
## Result > 200 mg/kg

## Task Output LD50 of CC(C)[C@H]1CC[C@H](C)C[C@@H]1OC(=O)CCC1=NOC(CN)C1 (single isomer, unassigned; (+))
## Result 50 to 100 mg/kg

## Task Output LD50 of CC(=O)NCC1CC(CCC(=O)O)=NO1 (stereo not shown)
## Result > 100 mg/kg

## Task Output LD50 of `CCOC(=O)CCc1cc(CN)on1.Cl`
## Result > 100 mg/kg

Each recorded value in this set is attributed to patent US5273989A.
